- experiment description: Ordinary stability of QC samples (room temperature for 8 h)
- Type: physicochemical, rat
- experimental context: plasma QC, spiked 500 ng/mL, room temperature 8 h
result type: Ordinary stability Mean (%)

INSERT INTO measurements (compound, unit_info, observed_value) VALUES
  ('O=Cc1ccc2n1C[C@]1(C[C@H](O)[C@@H](CO)O1)OC2', '%', 109.98),
  ('COc1ccc(-c2coc3cc(O[C@@H]4O[C@H](CO)[C@@H](O)[C@H](O)[C@H]4O)ccc3c2=O)cc1', '%', 103.90),
  ('COc1cc(O[C@@H]2O[C@H](CO)[C@@H](O)[C@H](O)[C@H]2O)cc(OC)c1OC', '%', 117.94),
  ('O=C1C[C@@H](c2ccc(O)cc2)Oc2cc(O)cc(O)c21', '%', 101.11),
  ('COc1ccccc1-c1cc(=O)c2c(O)cc(OC)c(OC)c2o1', '%', 88.55),
  ('COC(=O)c1ccc(O)cn1 [Analyte 2, 5-hydroxypicolinic acid methyl ester]', '%', 95.34),
  ('O=C(O)c1ccccc1O', '%', 103.60),
  ('O=Cc1ccc2n1C[C@@]1(C[C@H](O)[C@@H](CO)O1)OC2 [Analyte 4, 9-epi-acortatarin A]', '%', 84.20);

Where these numbers come from: paper PMC7382147
